Origin of the recorded values: ChEMBL document CHEMBL3351615

Reported pIC50 values, Histone deacetylase 1 (Homo sapiens, UniProt Q13547).
pIC50: −log10 of the molar value.
quantityName: pIC50

O=C(NO)c1ccc(N2CCN(Cc3cccc4ccccc34)C2=O)cc1: 8.02
O=C(NO)c1ccc(N2CCN(Cc3ccccc3)C2=O)cc1: 7.77
O=C(NO)c1ccc(N2CCN(CCCN3CCCC3)C2=O)cc1: 6.94

[1] O=C(NO)c1ccc(N2CCN(Cc3ccc(F)cc3)C2=O)cc1
[2] O=C(NO)c1ccc(N2CCN(Cc3cccnc3)C2=O)cc1
Decide: 1 or 2 , by lowest recorded pIC50. Please respond with the label that marks your chosen entry.
2

[1] Cn1cc(CCN2CCN(c3ccc(C(=O)NO)cc3)C2=O)c2ccccc21
[2] O=C(NO)c1ccc(N2CCN(c3cnc4ccccc4c3)C2=O)cc1
Looking at 1 and 2 , which one comes out lower in pIC50 terms? Give the label of your selection.
2

[P] O=C(NO)c1ccc(N2CCN(Cc3ccc(C(F)(F)F)cc3)C2=O)cc1
[Q] O=C(NO)c1ccc(N2CCN(Cc3cccc4ncccc34)C2=O)cc1
[R] O=C(NO)c1ccc(N2CCN(CCc3ccccc3)C2=O)cc1
Please put the entries in order of rising pIC50. The reply should contain the labels ordered as requested.
P, R, Q

[A] CN(C)Cc1cccc(CN2CCN(c3ccc(C(=O)NO)cc3)C2=O)c1
[B] CCN(CC)Cc1ccc2cc(CN3CCN(c4ccc(C(=O)NO)cc4)C3=O)ccc2c1
[C] O=C(NO)c1ccc(N2CCN(c3cccnc3)C2=O)cc1
[D] CN(C)c1cccc(CN2CCN(c3ccc(C(=O)NO)cc3)C2=O)c1
Please list these compounds in decreasing order of pIC50. Answer format: the labels, in the requested order.
B, D, A, C
(B: 8.57, D: 8.02, A: 7.64, C: 6.74)
